molecular target: amylin receptor (RNA membranes); assay: displacement of 125I-rat amylin from RNA membranes
pIC50: −log10 of the molar value. Numbered stars: 1 amine (or outer) side, 2 acyl side, 3 side chain; on linkers, the order of the positions; unused ones are H or OH. Side chains are listed from the residue outwards. Ends that are not written are not given here. γGlu = O=C(O)[C@H](CCC(=O)[*:2])N[*:1]
Label y when pIC50 is at or above 9; anything below gets n.

# binder, qualitative.label
data = [
    ("KCNTATCALQRLAQELHRLQTYPRTK([γGlu-C16‑Chain])VGSNTY-NH2 (ends and bridges not checked) [Cmpd 189 ([K^26ε-(γ-Glu(Nα-C16-Chain))]-Cmpd 17)]", "n"),
    ("KCNTATCALQRLAQELHRLQK([γGlu-C16‑Chain])YPRTNVGSNTY-NH2 (ends and bridges not checked) [Cmpd 187 ([K^21ε-(γ-Glu(Nα-C16-Chain))]-Cmpd 17)]", "y"),
]
